Biological target: wild-type MphR with RBS mutations A1T/G2T/A3C (smRBS1A1, RBS TTCAGGT; SEQ ID NO: 53) (Escherichia coli)
Construct: GFP reporter in E. coli
Assay: MphR-GFP biosensor dose-response, smRBS1A1
experimentalEndpoint: EC50 (µM)
Just the number please, in µM, no unit attached.

Using the record for `CC[C@H]1OC(=O)[C@H](C)C(=O)[C@H](C)[C@@H](O[C@@H]2O[C@H](C)C[C@H](N(C)C)[C@H]2O)[C@@H](C)C[C@@H](C)C(=O)/C=C/[C@]1(C)O` , report its EC50.
48

---

Biological target: MphR variant S106F (pikB1, D3; SEQ ID NO: 10, 38) (Escherichia coli, UniProt Q9EVJ6, S106F)
Test: cell-based
experimentalEndpoint: EC50 (nM)
Just the number please, in nM, no unit attached.

Using the record for `CC[C@H]1OC(=O)[C@H](C)[C@@H](O[C@@H]2O[C@H](C)C[C@H](N(C)C)[C@H]2O)[C@@H](C)C[C@@H](C)C(=O)/C=C/[C@H]1C` , report its EC50.
490

Record: `CC[C@H]1OC(=O)[C@H](C)C(=O)[C@H](C)[C@@H](O[C@@H]2O[C@H](C)C[C@H](N(C)C)[C@H]2O)[C@@H](C)C[C@@H](C)C(=O)/C=C/[C@]1(C)O`
810

Data credit: patent US12091718B2
